Parameter EC50: see the listing below.
biological target: Aryl hydrocarbon receptor (Mus musculus, UniProt P30561); experiment: Agonist activity at Ah receptor in genetically engineered mouse cells expressing firefly luciferase gene by CALUX transactivational assay
Sequence (P30561 whole entry): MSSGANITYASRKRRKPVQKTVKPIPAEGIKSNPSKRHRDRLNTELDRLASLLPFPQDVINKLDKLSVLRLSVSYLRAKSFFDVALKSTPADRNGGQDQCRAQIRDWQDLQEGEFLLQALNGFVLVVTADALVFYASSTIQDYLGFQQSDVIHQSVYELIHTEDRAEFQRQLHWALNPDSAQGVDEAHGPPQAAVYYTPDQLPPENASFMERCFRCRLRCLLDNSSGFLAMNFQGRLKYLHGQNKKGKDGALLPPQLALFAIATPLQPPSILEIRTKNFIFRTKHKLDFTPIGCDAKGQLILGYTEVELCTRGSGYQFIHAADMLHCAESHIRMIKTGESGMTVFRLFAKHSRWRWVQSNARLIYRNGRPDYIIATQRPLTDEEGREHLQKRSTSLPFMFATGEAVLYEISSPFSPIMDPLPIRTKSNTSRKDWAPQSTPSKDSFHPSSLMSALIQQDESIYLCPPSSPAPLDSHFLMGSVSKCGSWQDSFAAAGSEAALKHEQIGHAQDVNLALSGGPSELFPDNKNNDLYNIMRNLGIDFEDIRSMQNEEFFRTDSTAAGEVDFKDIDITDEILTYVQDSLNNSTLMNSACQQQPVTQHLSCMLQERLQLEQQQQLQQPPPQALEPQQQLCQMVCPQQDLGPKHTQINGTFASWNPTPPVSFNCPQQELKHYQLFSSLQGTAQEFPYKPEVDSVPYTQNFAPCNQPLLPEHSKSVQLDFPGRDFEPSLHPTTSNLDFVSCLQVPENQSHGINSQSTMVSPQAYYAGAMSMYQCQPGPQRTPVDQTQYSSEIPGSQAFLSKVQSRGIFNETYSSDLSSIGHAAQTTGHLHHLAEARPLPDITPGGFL

[in] Data request, read-out EC50, for `Cc1cc(F)ccc1Oc1nc2ccc(N(C)C(=O)/C=C/CN(C)C)cc2n2cncc12`
[out] > 10 µM

----------
molecular target: UniProt:P00533; test: Inhibition of EGFR after 60 mins by TR-FRET Assay
Sequence (P00533 whole entry): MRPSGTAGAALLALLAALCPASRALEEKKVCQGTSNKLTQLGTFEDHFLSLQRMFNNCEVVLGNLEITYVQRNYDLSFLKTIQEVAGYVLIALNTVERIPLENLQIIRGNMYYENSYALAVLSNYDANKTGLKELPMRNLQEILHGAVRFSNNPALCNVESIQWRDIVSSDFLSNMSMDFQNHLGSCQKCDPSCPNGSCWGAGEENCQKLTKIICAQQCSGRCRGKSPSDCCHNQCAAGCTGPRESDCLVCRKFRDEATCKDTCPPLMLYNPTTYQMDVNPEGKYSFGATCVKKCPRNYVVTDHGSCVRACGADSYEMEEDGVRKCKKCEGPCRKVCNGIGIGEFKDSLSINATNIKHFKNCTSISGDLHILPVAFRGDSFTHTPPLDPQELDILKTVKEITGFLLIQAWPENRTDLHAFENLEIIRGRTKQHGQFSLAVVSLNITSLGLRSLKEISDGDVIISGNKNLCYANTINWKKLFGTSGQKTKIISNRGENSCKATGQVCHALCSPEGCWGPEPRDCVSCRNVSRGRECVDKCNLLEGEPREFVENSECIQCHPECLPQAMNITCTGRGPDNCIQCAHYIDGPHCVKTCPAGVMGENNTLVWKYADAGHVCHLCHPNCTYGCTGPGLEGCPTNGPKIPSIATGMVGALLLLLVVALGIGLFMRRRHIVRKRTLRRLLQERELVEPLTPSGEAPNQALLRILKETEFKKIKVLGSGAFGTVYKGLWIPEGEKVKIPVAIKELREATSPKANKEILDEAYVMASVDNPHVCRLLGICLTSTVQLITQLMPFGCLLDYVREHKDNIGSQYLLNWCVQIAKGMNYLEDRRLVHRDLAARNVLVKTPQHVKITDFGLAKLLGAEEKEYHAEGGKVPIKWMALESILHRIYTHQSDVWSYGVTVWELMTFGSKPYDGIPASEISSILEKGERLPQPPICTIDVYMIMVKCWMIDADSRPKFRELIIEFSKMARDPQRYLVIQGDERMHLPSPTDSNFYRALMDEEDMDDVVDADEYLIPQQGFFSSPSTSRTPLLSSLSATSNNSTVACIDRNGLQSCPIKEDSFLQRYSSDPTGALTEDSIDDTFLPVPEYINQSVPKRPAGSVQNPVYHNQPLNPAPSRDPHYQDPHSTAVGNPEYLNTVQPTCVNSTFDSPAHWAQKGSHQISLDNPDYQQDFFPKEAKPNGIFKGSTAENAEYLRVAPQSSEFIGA
MEASURED_ATTRIBUTE: IC50 (nM)
Record the value in nM, omitting the unit from your answer.

[in] Data request, read-out IC50, for `Cc1ccc(F)cc1Nc1nc2cc(Cl)c(N(C)C(=O)/C=C/CN(C)C)cc2n2cncc12`
[out] 68
